- experimental_system: CD28 (Homo sapiens, UniProt P10747)
- test_name: Jurkat/IL2 reporter assay: blockade of CD28 costimulation (plate-bound anti-CD3/CD86-Fc)
- Format: cell-based
- Set-up: host or cells: Jurkat cells expressing an IL-2-luciferase reporter
- assay_conditions: Table E5; protein diluted to 40 nM before mixing with cells; 5 hours
measurement_label: Average Relative Luminescence Units

Sample answers from the record:
molecule | Average Relative Luminescence Units
E35D/A71D/L72V: variant CD80 IgV-Fc, IgV SEQ ID NO:200 (protein) VIHVTKEVKEVATLSCGHNVSVEELAQTRIYWQKDKKMVLTMMSGDMNIWPEYKNRTIFDITNNLSIVILDVRPSDEGTYECVVLKYEKDAFKREHLAEVTLSVKAD | 1152 Relative Luminescence Units
E35D/M43I/A71D: variant CD80 IgV-Fc, IgV SEQ ID NO:212 (protein) VIHVTKEVKEVATLSCGHNVSVEELAQTRIYWQKDKKMVLTMISGDMNIWPEYKNRTIFDITNNLSIVILDLRPSDEGTYECVVLKYEKDAFKREHLAEVTLSVKAD | 3019 Relative Luminescence Units

Tell me measured Average Relative Luminescence Units for M47I/E88D: variant CD80 IgV-Fc, IgV SEQ ID NO:186 (protein) VIHVTKEVKEVATLSCGHNVSVEELAQTRIYWQKEKKMVLTMMSGDINIWPEYKNRTIFDITNNLSIVILALRPSDEGTYECVVLKYDKDAFKREHLAEVTLSVKAD please.
2178 Relative Luminescence Units

The values you see were collected from patent US20220177587A1.
